Data origin, for the record: paper PMC3400562

# ASSAY SYSTEM: T1, linked peptide (HIV-1, strain  (synthetic …))
# T1 construct: source: synthetic peptide (Genscript)
# ASSAY SUMMARY: BLI; Octet Red; Mabs captured on anti-human IgG Fc biosensors (10 µg/mL), peptides or ES2 as analyte in solution, two-fold dilutions 500 nM to 7.81 nM, PBS pH 7.4, 0.2% Tween 20, 60 s association and 60 s dissociation, no lipid; Langmuir 1:1 fit; also used for the alanine-substituted MPER peptides
# EXPERIMENTAL SETUP: both partners purified

| BINDER | koff |
| --- | --- |
| 2F5 CDRH3 length-altered variant r4 (antibody, V domains shown) VH: RITLKESGPPLVKPTQTLTLTCSFSGFSLSDFGVGVGWIRQPPGKALEWLAIIYSDDDKRYSPSLNTRLTITKDTSKNQVVLVMTRVSPVDTATYFCAHRRGPLFGVARGPVNAMDVWGQGITVTISS VL: ALQLTQSPSSLSASVGDRITITCRASQGVTSALAWYRQKPGSPPQLLIYDASSLESGVPSRFSGSGSGTEFTLTISTLRPEDFATYYCQQLHFYPHTFGGGTRVDVR | 0.0105 s⁻¹ |
| 2F5 CDRH3 length-altered variant e2 (antibody, V domains shown) VH: RITLKESGPPLVKPTQTLTLTCSFSGFSLSDFGVGVGWIRQPPGKALEWLAIIYSDDDKRYSPSLNTRLTITKDTSKNQVVLVMTRVSPVDTATYFCAHRRGPTTGLFGVGPIARGPVNAMDVWGQGITVTISS VL: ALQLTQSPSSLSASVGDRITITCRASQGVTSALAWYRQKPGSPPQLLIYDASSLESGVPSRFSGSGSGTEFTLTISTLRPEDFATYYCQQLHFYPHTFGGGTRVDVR | 0.0035 s⁻¹ |
